Every entry's value here was drawn from the Immune Epitope Database (IEDB).

target: HLA-A*02:03; assay: IEDB peptide-MHC binding, purified MHC/competitive/radioactivity; filed as Kd, often an IC50 or EC50 that approximates it; bounds were set here for any values at or beyond the usual limits of such assays; details: source organism: SARS coronavirus Tor2
hey, just use 1 (yes) if measured Kd is less than 20 nM, otherwise 0 (no)

>>> df
   biosequence  measured_on  qualitative_label
0   WLMWFIISIV  HLA-A*02:03            1 (yes)
1    GTSAAAYFV  HLA-A*02:03             0 (no)
2    YIWKSYVHI  HLA-A*02:03            1 (yes)
3   FLMSFTILCL  HLA-A*02:03             0 (no)
4    IAACAMLLV  HLA-A*02:03             0 (no)
5    MQVFFGYFA  HLA-A*02:03             0 (no)
6    TLLCVLAAL  HLA-A*02:03            1 (yes)
7    VIADYNYKL  HLA-A*02:03             0 (no)
8   LVIGVAFLAV  HLA-A*02:03             0 (no)

* * *

target: HLA-A*29:02; assay: IEDB peptide-MHC binding, purified MHC/competitive/fluorescence; filed as Kd, often an IC50 or EC50 that approximates it; bounds were set here for any values at or beyond the usual limits of such assays; settings: source organism: Giardia lamblia ATCC 50803
pKd: −log10 of the molar value.
OBSERVABLE: pKd

   biosequence  measured_on  result
0    DEYGPVFVE  HLA-A*29:02  ≤ 4.70

* * *

molecular target: HLA-A*69:01; assay: IEDB peptide-MHC binding, purified MHC/direct/fluorescence; filed as Kd, often an IC50 or EC50 that approximates it; bounds were set here for any values at or beyond the usual limits of such assays; conditions: source organism: Mycobacterium tuberculosis
pKd: −log10 of the molar value.
Each item that follows carries a reported pKd.
OBSERVABLE: pKd

>>> print(df.to_string())
   biosequence  measured_on  observable  relation_qualifier  quantitative_readout
0    LLWAFAHRQ  HLA-A*69:01         pKd                   ≤                  4.70
1    RPRLHSISF  HLA-A*69:01         pKd                   ≤                  4.70
2    RPAGARAAF  HLA-A*69:01         pKd                   ≤                  4.70
3    RMWEFLDRL  HLA-A*69:01         pKd                   =                  5.66
4    ALLENIHRV  HLA-A*69:01         pKd                   =                  7.33

* * *

target: HLA-B*58:01; assay: IEDB peptide-MHC binding, purified MHC/direct/fluorescence; filed as Kd, often an IC50 or EC50 that approximates it; bounds were set here for any values at or beyond the usual limits of such assays; conditions: source organism: Yersinia pestis Antiqua
OBSERVABLE: Kd (nM)

>>> df
   biosequence  quantitative_readout
0    ASSALDAHF                   4.4
